Recorded values, source patent US20110293610A1.

target: T1, TNF-alpha (human, UniProt P01375 77-233); experiment: phage ELISA
T1 construct: also called TNFα; TNF-α
T1 sequence (P01375 77-233 limits assumed): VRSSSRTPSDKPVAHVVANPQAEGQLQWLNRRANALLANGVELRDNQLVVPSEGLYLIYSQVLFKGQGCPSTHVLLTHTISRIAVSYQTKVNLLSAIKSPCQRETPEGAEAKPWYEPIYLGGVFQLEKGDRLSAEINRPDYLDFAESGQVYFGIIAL
Test Readout: binding result

Binder: I050A12 (scFv) scFv: EVQLVQSGAEVKKPGSSVKVSCKASGDTFSHYAINWVRQAPGQGLEWMGGIIPTFNAVKYAQKFQGRATITADGSTSTAYMELNSLRSEDTAVYYCATAPYDLLTHYFHYFDYWGQGTMVTVSSGGGGSGGGGSGGGGSALSSELTQDPAVSVTLGQTVRITCQGDSLRSYYPSWYQQKPGQAPVLVIYPKNIRPSGIPDRFSGSSSGNTASLTITGAQAEDEADYYCNSRASSGNHYVFATGTKLTVLG
Test Readout: binding result
Reported: no binding

Binder: I065F08 (scFv) scFv: QVQLQQSGAEVKKPGSSVKVSCKASGDTFSSFGISWVRQVPGQGLEWMGAIIPKFDIVTYAEEFKGRVTISADKLTNTAYMEVKSLRSEDTAVYYCTREKSAAGYFDYWGKGTLVTVSSGGGGSGGGGSGGGGSDIVMTQSPSTLSASVGDRVTITCRASQGISSWLAWYQQKPGRAPKVLIYKASTLESGVPSRFSGSGSGTDFTLTISSLQPEDFATYYCQQSYSTPWTFGQGTKLEIKR
Test Readout: binding result
Reported: no binding

Binder: I031G11 (scFv) scFv: QVQLVQSGAEVKKPGASVKVSCTVSGDSFSRHGISWVRQAPGQGLEWMGWISVYNGDTKYAQKVQGRVTMTTDTSTNTVYMELRRLRSDDTAVYYCARDEGRDLLTGYYWPNFFDSWGRGTLVTVSSGGGGSGGGGSGGGGSALSYVLTQPPSVSGTPGQKVTISCSGSRPNIGGNTVNWYQQLPGAAPKLLIYSNSQRPSGVPDRFSGSKYGTSASLAISGLQSDDEADYYCAAWDDSLTGPVFGGGTKLTVLG
Test Readout: binding result
Reported: no binding
